# assayed system: androgen receptor (AR) (Homo sapiens)
# protocol summary: MDA-MB-453 Androgen Receptor Transactivation Assay
# Assay type: cell-based
# assay setup: MDA-MB-453 cells, PSA-Luc reporter, 3 nM DHT, 48 hour incubation
reported endpoint: IC50
Quick note: number first, unit second.

C[C@]12[C@H](CN(c3ccc(C#N)c(C(F)(F)F)c3)S1(=O)=O)[C@@H]1C=C[C@H]2O1	1420 nM
C[C@]12CC[C@](C)(O1)[C@@H]1[C@H]2CN(c2ccc(C#N)c(C(F)(F)F)c2)S1(=O)=O (racemic)	1350 nM

Look at this compound and give its reported IC50. N#Cc1ccc(N2C[C@H]3[C@@H]4O[C@@H](C[C@H]4O)[C@H]3S2(=O)=O)cc1C(F)(F)F (racemic) [Example 10iii]
8320 nM

----------
# assayed system: wild type AR (Homo sapiens)
# Sequence (P10275 whole entry Q868H, form open): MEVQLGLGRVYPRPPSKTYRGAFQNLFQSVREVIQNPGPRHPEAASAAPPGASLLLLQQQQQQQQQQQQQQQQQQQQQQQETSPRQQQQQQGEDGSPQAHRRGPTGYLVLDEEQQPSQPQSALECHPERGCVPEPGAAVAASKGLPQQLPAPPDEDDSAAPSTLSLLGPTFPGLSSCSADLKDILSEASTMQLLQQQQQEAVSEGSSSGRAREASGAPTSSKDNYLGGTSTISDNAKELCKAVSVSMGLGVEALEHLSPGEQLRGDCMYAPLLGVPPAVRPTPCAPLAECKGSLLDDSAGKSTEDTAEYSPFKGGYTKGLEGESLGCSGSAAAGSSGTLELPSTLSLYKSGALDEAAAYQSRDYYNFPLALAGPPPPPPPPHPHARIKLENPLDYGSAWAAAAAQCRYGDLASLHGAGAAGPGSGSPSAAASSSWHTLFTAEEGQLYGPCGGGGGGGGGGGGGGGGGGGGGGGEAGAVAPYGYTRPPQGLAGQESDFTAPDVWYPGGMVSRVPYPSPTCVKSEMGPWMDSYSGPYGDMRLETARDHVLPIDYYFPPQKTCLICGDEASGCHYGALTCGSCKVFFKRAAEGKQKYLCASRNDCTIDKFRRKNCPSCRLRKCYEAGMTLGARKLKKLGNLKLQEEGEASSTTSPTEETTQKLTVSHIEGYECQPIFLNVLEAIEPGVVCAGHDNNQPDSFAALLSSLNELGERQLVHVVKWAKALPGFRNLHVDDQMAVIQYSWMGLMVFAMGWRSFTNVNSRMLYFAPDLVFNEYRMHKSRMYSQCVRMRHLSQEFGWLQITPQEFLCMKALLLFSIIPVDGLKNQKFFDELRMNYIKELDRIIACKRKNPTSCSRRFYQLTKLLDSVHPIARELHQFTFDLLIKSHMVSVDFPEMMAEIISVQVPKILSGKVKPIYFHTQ
# protocol summary: AR Binding Assay (whole cell, MDA-MB-453, competition with [3H]-DHT)
# assay setup: MDA-MB-453 cells, competition with 2 nM [3H]-DHT, Cheng-Prusoff
pKi: −log10 of the molar value.
Please use fulfilled whenever pKi is not below 7, and not fulfilled whenever it is.

Check the entry N#Cc1ccc(N2C[C@@H]3[C@@H]4O[C@@H](C[C@@H]4O)[C@@H]3S2(=O)=O)cc1C(F)(F)F (single isomer, unassigned) [Example 37i] : does pKi equal or exceed 7?
fulfilled

----------
This listing pairs compounds with measured pIC50.
# assayed system: androgen receptor (AR) (Homo sapiens)
# protocol summary: MDA-MB-453 Androgen Receptor Transactivation Assay
# assay setup: MDA-MB-453 cells, PSA-Luc reporter, 3 nM DHT, 48 hour incubation
Here pIC50 is given on a logarithmic scale as minus log10 of the concentration in mol/L.

Sample records with pIC50:
N#Cc1ccc(N2C[C@@H]3[C@@H]4O[C@@H](C[C@@H]4O)[C@@H]3S2(=O)=O)cc1C(F)(F)F (single isomer, unassigned) [Example 37i]	6.81
N#Cc1ccc(N2CC3C([C@@H]4CC[C@H]3O4)S2(=O)=O)cc1C(F)(F)F (stereo in doubt) [Example 6]	6.70
COC(=O)N[C@@H]1C[C@@H]2O[C@H]1[C@@H]1CN(c3ccc(C#N)c(C(F)(F)F)c3)S(=O)(=O)[C@@H]12 (racemic) [Example 26i]	5.50
N#Cc1ccc(N2C[C@@H]3[C@@H]([C@@H]4O[C@H]3C[C@@H]4O)S2(=O)=O)cc1C(F)(F)F (single isomer, unassigned) [Example 38ii]	6.85
C[C@@]12C=C[C@@H](O1)[C@@H]1CN(c3ccc(C#N)c(C(F)(F)F)c3)S(=O)(=O)[C@@H]12 (racemic) [Example 21ii]	5.95

pIC50 of COC(=O)N[C@@H]1C[C@H]2O[C@@H]1[C@H]1[C@@H]2CN(c2ccc(C#N)c(C(F)(F)F)c2)S1(=O)=O [Example 41i] on androgen receptor (AR) (Homo sapiens)?
5.08

----------
# assayed system: wild type AR (Homo sapiens)
# protocol summary: AR Binding Assay (whole cell, MDA-MB-453, competition with [3H]-DHT)
# assay setup: MDA-MB-453 cells, competition with 2 nM [3H]-DHT, Cheng-Prusoff
Recorded log10 of Ki by entry
Note: values are log10 of Ki expressed in nM.

See these solved cases before continuing.
COC(=O)N[C@H]1C[C@@H]2O[C@H]1[C@H]1CN(c3ccc(C#N)c(C(F)(F)F)c3)S(=O)(=O)[C@H]12 [Example 40i]	1.66
N#Cc1ccc(N2CC3C([C@@H]4CC[C@H]3O4)S2(=O)=O)cc1C(F)(F)F (stereo in doubt)	1.36
COC(=O)N[C@@H]1C[C@@H]2O[C@H]1[C@@H]1CN(c3ccc(C#N)c(C(F)(F)F)c3)S(=O)(=O)[C@@H]12 (racemic) [Example 26i]	2.42
N#Cc1ccc(N2C[C@H]3[C@@H]4O[C@@H](C[C@H]4O)[C@H]3S2(=O)=O)cc1C(F)(F)F (racemic) [Example 10ii]	2.87
N#Cc1ccc(N2C[C@@H]3[C@@H]([C@@H]4O[C@H]3C[C@@H]4O)S2(=O)=O)cc1C(F)(F)F (single isomer, unassigned) [Example 38ii]	1.00

Here is the next item to consider.
Any idea what its log10 of Ki is? The molecule is COC(=O)N[C@@H]1C[C@H]2O[C@@H]1[C@H]1[C@@H]2CN(c2ccc(C#N)c(C(F)(F)F)c2)S1(=O)=O [Example 41i]
2.55
